- System: HL-60
- measurement notes: Cytotoxicity against Homo sapiens (human) HL60 cells at 1 x 10^-6 mol/L after 48 hr by MTT assay
- Type: functional
- condition notes: HL-60, 48 h
parameter: inhibition at 1 µM

• CCOC(=O)[C@H](CCC(=O)OCCCCCOc1no[n+]([O-])c1S(=O)(=O)c1ccccc1)NC(=O)c1ccc(CCc2c[nH]c3[nH]c(N)nc(=O)c23)cc1 = > 80%
• Nc1nc2[nH]cc(CCc3ccc(C(=O)N[C@@H](CCC(=O)O)C(=O)O)cc3)c2c(=O)[nH]1 [PEMETREXED DISODIUM] = > 80%
• CCOC(=O)[C@H](CCC(=O)OCCCCOc1no[n+]([O-])c1S(=O)(=O)c1ccccc1)NC(=O)c1ccc(CCc2c[nH]c3[nH]c(N)nc(=O)c23)cc1 = 50%
• CCOC(=O)[C@H](CCC(=O)OCCCOc1no[n+]([O-])c1S(=O)(=O)c1ccccc1)NC(=O)c1ccc(CCc2c[nH]c3[nH]c(N)nc(=O)c23)cc1 = 50%
• CCOC(=O)[C@H](CCC(=O)OCC#CCOc1no[n+]([O-])c1S(=O)(=O)c1ccccc1)NC(=O)c1ccc(CCc2c[nH]c3[nH]c(N)nc(=O)c23)cc1 = > 80%
• CCOC(=O)[C@H](CCC(=O)OCCOc1no[n+]([O-])c1S(=O)(=O)c1ccccc1)NC(=O)c1ccc(CCc2c[nH]c3[nH]c(N)nc(=O)c23)cc1 = 50%
• CCOC(=O)[C@H](CCC(=O)OCCCCCCOc1no[n+]([O-])c1S(=O)(=O)c1ccccc1)NC(=O)c1ccc(CCc2c[nH]c3[nH]c(N)nc(=O)c23)cc1 = > 80%
• CCOC(=O)[C@H](CCC(=O)OCCOCCOc1no[n+]([O-])c1S(=O)(=O)c1ccccc1)NC(=O)c1ccc(CCc2c[nH]c3[nH]c(N)nc(=O)c23)cc1 = > 80%
• CCOC(=O)[C@H](CCC(=O)OC(C)COc1no[n+]([O-])c1S(=O)(=O)c1ccccc1)NC(=O)c1ccc(CCc2c[nH]c3[nH]c(N)nc(=O)c23)cc1 (some centres undefined) = > 80%
